# Kd per record follows
# Target desc: RSV prefusion F (preF, DS-Cav1) (Respiratory syncytial virus)
# Test description: BLI, IgG on sensor, 100 nM antigen
Measure name: Kd (nM)

- ADI-41315 (antibody, V domains shown) VH: EVQLLESGPGLVKPSETLSLTCAVSGGSISNYYWSWIRQPPGKGLEWIAYISYSGTTNYNPSLESRVTISVDTSKNQFSLKLNSVTAADTAVYYCARHEFLVLPDVWGQGTLVTVSS VL: ETTLTQSPGTLSLSPGERATLSCRASQSVSSTFLAWYQQKPGQAPRLLIYAASSRATGIPDRFSGSGSGTDFTLIISRLEPEDFAVYYCQQYRSSPFSFGPGTKVEIK: 2.93
- ADI-41296 (antibody, V domains shown) VH: EVQLVESGVEVKKPGESLKISCRGSGYTFYNYWIAWVRQKPGKGLEYMGTIYLDDSETIYSPSFQGEVTISADKSINTAYLQWNSLKASDTANYYCARQMDFYFDVWGRGTLVTVSS VL: SYELMQPPSVSVSPGQTARITCSGDPLPRESAYWYQQKPGQAPVVIIFNDIERPLGIPERFSGSRSGTTVTLTISGAQAEDEADYYCQSADSRKTFVFGTGTKLTVL: 3.35
- ADI-41324 (antibody, V domains shown) VH: EVQLVESGGGLVQPGGSLRLSCAASGFTVSNNYMRWVRQAPGKGLEWVSVIYSSGSTDYADSVKGRFTISRDNSKNTLYLQMNSLRAEDTAVYYCARERTLFYYDSSGFFDYWGQGTLVTVSS VL: ETTLTQSPGTLSLSPGERATLSCRASQSVDSSYLAWYQQKPGQAPRLLIYGASNRATGIPDRFSGSGSGTDFTLTISRLEPEDFAVYYCQQYGRSLTFGGGTKLEIK: 2.47
